Entries and their viability, T/C values follow.
Tested on: 755483-174-R-J1-PDC complex spheroid growth, percent test/control;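 also: spheroids exposed to compounds for seven days before readout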
assayOverview: Anticancer human tumor 755483-174-R-J1-PDC patient-derived rhabdomyosarcoma cell line growth inhibition [Asc]
appliedConditions: second compound 0.3 µM; first compound 10 µM; stronger effect = lower value
Your answer is read as %, so omit the unit and give the number.

// below: answered molecules
Form: molecule = C#Cc1c(F)ccc2cc(O)cc(-c3ncc4c(N5CC6CCC(C5)N6)nc(OCC56CCCN5CC(F)C6)nc4c3F)c12 (centres undefined) + CCN1C(C(=O)NC23CCC(C(=O)O)(CC2)CC3)C(c2cccc(Cl)c2F)C2(C(=O)Nc3cc(Cl)ccc32)C12CCCCC2 ; viability, T/C = 30.5

So, C=CC(=O)N1CCN(c2nc(=O)n(-c3c(C)ccnc3C(C)C)c3nc(-c4c(O)cccc4F)c(F)cc23)C(C)C1 (centres undefined) + CCN1C(C(=O)NC23CCC(C(=O)O)(CC2)CC3)C(c2cccc(Cl)c2F)C2(C(=O)Nc3cc(Cl)ccc32)C12CCCCC2 ? Its viability, T/C was 88.8

Reported viability, T/C of C=C(F)C(=O)N1CCN(c2nc(OCC3CCCN3C)nc3c2CCN(c2cccc4cccc(Cl)c24)C3)CC1CC#N (centres undefined) + CCN1C(C(=O)NC23CCC(C(=O)O)(CC2)CC3)C(c2cccc(Cl)c2F)C2(C(=O)Nc3cc(Cl)ccc32)C12CCCCC2 : 0.51

// below: viability, T/C requested for another molecule
// O=C(c1cc(Cc2n[nH]c(=O)c3ccccc23)ccc1F)N1CCN(C(=O)C2CC2)CC1 + CCN1C(C(=O)NC23CCC(C(=O)O)(CC2)CC3)C(c2cccc(Cl)c2F)C2(C(=O)Nc3cc(Cl)ccc32)C12CCCCC2 : viability, T/C value = 28.6
